Where these numbers come from: paper PMC9697818

Biological target: hCA II (Homo sapiens, UniProt P00918)
Construct: recombinant, cytosolic isoform
Assay: stopped-flow CO2 hydration assay
parameter.measured: pKi
Give only the number. pKi is defined as minus log10 of concentration in molar units.

input: // fetch pKi given entry CC(C)c1ccc(/C=C2/SC(=S)N(CC(=O)Nc3ccc(S(N)(=O)=O)cc3)C2=O)cc1
output: 7.16

input: Quickly give me recorded pKi for NS(=O)(=O)c1ccc(NC(=O)CN2C(=O)/C(=C\c3ccc(C(F)(F)F)cc3)SC2=S)cc1
output: 7.11

input: Supply recorded pKi for NS(=O)(=O)c1ccc(NC(=O)CN2C(=O)/C(=C\c3ccc(F)c(F)c3)SC2=S)cc1 here.
output: 7.71

input: Identify measured pKi corresponding to NS(=O)(=O)c1ccc(NC(=O)CN2C(=O)/C(=C\c3ccccc3)SC2=S)cc1
output: 7.16

input: Using the record for NS(=O)(=O)c1ccc(NC(=O)CN2C(=O)/C(=C\c3ccc(Cl)cc3)SC2=S)cc1 , state its measured pKi.
output: 7.29

input: Look up and state reported pKi for CCOc1cc(/C=C2/SC(=S)N(CC(=O)Nc3ccc(S(N)(=O)=O)cc3)C2=O)ccc1O
output: 8.14

input: Name the recorded pKi of the compound listed here: COc1cc(/C=C2/SC(=S)N(CC(=O)Nc3ccc(S(N)(=O)=O)cc3)C2=O)cc(OC)c1O
output: 8.02
